Just for reference, paper PMC9354705 is where these values come from.

# reported bioavailability; entries follow
Assay: Pharmacokinetic analysis in ICR mice
Format: in vivo, mouse
Details: male, mouse, plasma; ICR mice, 10 mg/kg oral vs 2.0 mg/kg i.v.; read-out: F% (oral bioavailability)
Protocol: Samples were placed in tubes containing heparin sodium and stored on ice until centrifuged. Blood samples were centrifuged at 6800g for 6 min at 2–8°C within 1 h following sample collection and stored at −80°C. […] Analysis of samples was conducted as follows. […] The PK parameters including Area Under the Curve (AUC[0–∞]) elimination half‐life (t 1/2), maximal plasma concentration (C max), and oral bioavailability (F%) were analyzed by noncompartmental methods.
Respond with the bare value in %.

Challenge: Respond only with bioavailability recorded for N#Cc1cccc(CN2CCC3=C(C2)C(=O)N(Cc2ccc(Cl)cc2)C2=NCCN23)c1 [TR‐65]
Response given: 33

Challenge: Respond only with bioavailability recorded for Cn1c2c(c(=O)n(Cc3ccc(Cl)cc3)c1=O)CN(Cc1cccc(C#N)c1)CC2 [TR‐57]
Response given: 61

Challenge: Respond only with bioavailability recorded for C#Cc1cccc(CN2CCC3=C(C2)C(=O)N(Cc2ccc(Cl)cc2)C2=NCCN23)c1 [TR‐27]
Response given: 33

Challenge: Respond only with bioavailability recorded for O=C1C2=C(CCN(Cc3ccccc3)C2)N2CCN=C2N1Cc1ccc(C(F)(F)F)cc1 [ONC212/TR‐31, reference compound]
Response given: 14

Challenge: Respond only with bioavailability recorded for Cc1ccccc1CN1C(=O)C2=C(CCN(Cc3ccccc3)C2)N2CCN=C12 [ONC201, reference compound]
Response given: 1.2

====

assay: Pharmacokinetic analysis in ICR mice; assay type: in vivo, mouse; details: male, mouse, plasma, iv; ICR mice, 2.0 mg/kg i.v.; read-out: C max (mg/ml)
# reported Cmax; entries follow
Respond with the bare value in mg/mL.

Guide cases for Cmax, answers given:
N#Cc1cccc(CN2CCC3=C(C2)C(=O)N(Cc2ccc(Cl)cc2)C2=NCCN23)c1 [TR‐65] : 0.000636
Cn1c2c(c(=O)n(Cc3ccc(Cl)cc3)c1=O)CN(Cc1cccc(C#N)c1)CC2 [TR‐57] : 0.00124
C#Cc1cccc(CN2CCC3=C(C2)C(=O)N(Cc2ccc(Cl)cc2)C2=NCCN23)c1 [TR‐27] : 0.000154

Now look at this entry.
Challenge: Respond only with Cmax recorded for O=C1C2=C(CCN(Cc3ccccc3)C2)N2CCN=C2N1Cc1ccc(C(F)(F)F)cc1 [ONC212/TR‐31, reference compound]
Response given: 0.00095

====

test: Pharmacokinetic analysis in ICR mice; type: in vivo, mouse; conditions: male, mouse, plasma, iv; ICR mice, 2.0 mg/kg i.v.
Assay readout: log10 of AUC(0-inf) (log10 of the value in ng·h/mL)
Please keep in mind that the values are log10 of AUC(0-inf) expressed in ng·h/mL.

Challenge: Respond only with log10 of AUC(0-inf) recorded for O=C1C2=C(CCN(Cc3ccccc3)C2)N2CCN=C2N1Cc1ccc(C(F)(F)F)cc1 [ONC212/TR‐31, reference compound]
Response given: 2.80

Challenge: Respond only with log10 of AUC(0-inf) recorded for C#Cc1cccc(CN2CCC3=C(C2)C(=O)N(Cc2ccc(Cl)cc2)C2=NCCN23)c1 [TR‐27]
Response given: 2.19

Challenge: Respond only with log10 of AUC(0-inf) recorded for Cc1ccccc1CN1C(=O)C2=C(CCN(Cc3ccccc3)C2)N2CCN=C12 [ONC201, reference compound]
Response given: 1.71

Challenge: Respond only with log10 of AUC(0-inf) recorded for Cn1c2c(c(=O)n(Cc3ccc(Cl)cc3)c1=O)CN(Cc1cccc(C#N)c1)CC2 [TR‐57]
Response given: 2.95

Challenge: Respond only with log10 of AUC(0-inf) recorded for N#Cc1cccc(CN2CCC3=C(C2)C(=O)N(Cc2ccc(Cl)cc2)C2=NCCN23)c1 [TR‐65]
Response given: 2.55

====

Experiment: Protein binding to plasma proteins (equilibrium dialysis)
Format: in vitro ADME
Conditions: mouse plasma, read-out: serum‐free fraction
Description: Protein‐binding studies were performed by Eurofins Panlabs, Inc. This assay utilizes equilibrium dialysis in a microplate format, as previously described.[47] Briefly, this analysis is used to determine the bound and unbound fraction of the drug and calculate the percentage of the test compound binding to murine plasma proteins.
Assay readout: fraction unbound
Form field (numeric): enter value without unit.

Challenge: Respond only with fraction unbound recorded for `N#Cc1cccc(CN2CCc3ncn(Cc4ccc(Cl)cc4)c(=O)c3C2)c1`
Response given: 0.1

====

test: Pharmacokinetic analysis in ICR mice; type: in vivo, mouse; details: male, mouse, in vivo; ICR mice, 10 mg/kg oral; read-out: C max (mg/ml)
Assay readout: Cmax (ng/mL)
Respond with the bare value in ng/mL.

Challenge: Respond only with Cmax recorded for Cc1ccccc1CN1C(=O)C2=C(CCN(Cc3ccccc3)C2)N2CCN=C12 [ONC201, reference compound]
Response given: 8.99

====

assay: Pharmacokinetic analysis in ICR mice; format: in vivo, mouse; conditions: male, mouse, plasma; ICR mice, 10 mg/kg oral; read-out: T 1/2 (converted)
# reported half-life; entries follow
Respond with the bare value in h.

N#Cc1cccc(CN2CCC3=C(C2)C(=O)N(Cc2ccc(Cl)cc2)C2=NCCN23)c1 : 0.95
Cc1ccccc1CN1C(=O)C2=C(CCN(Cc3ccccc3)C2)N2CCN=C12 [ONC201, reference compound] : 0.31
N#Cc1cccc(CN2CCc3ncn(Cc4ccc(Cl)cc4)c(=O)c3C2)c1 : 0.9
C#Cc1cccc(CN2CCC3=C(C2)C(=O)N(Cc2ccc(Cl)cc2)C2=NCCN23)c1 : 1.16
Cn1c2c(c(=O)n(Cc3ccc(Cl)cc3)c1=O)CN(Cc1cccc(C#N)c1)CC2 : 1.4

Challenge: Respond only with half-life recorded for O=C1C2=C(CCN(Cc3ccccc3)C2)N2CCN=C2N1Cc1ccc(C(F)(F)F)cc1 [ONC212/TR‐31, reference compound]
Response given: 1.49

====

test system: SUM159 cells; assay: Cell viability (total cell count, Hoechst stain) in SUM159 cells; format: cell-based; conditions: Homo sapiens, WT cells, 72 h, mean N = 3
Assay readout: IC50 (nM)
Respond with the bare value in nM.

Guide cases for IC50, answers given:
O=C1C2=C(CCN(Cc3ccccc3)C2)N2CCN=C2N1Cc1ccc(F)cc1F [ONC206, reference compound] : 180
Cc1nc2c(c(=O)n1Cc1ccc(Cl)cc1)CN(Cc1cccc(C#N)c1)CC2 [TR‐97] : 53

Challenge: # assay system SUM159 cells: give IC50 of N#Cc1cccc(CN2CCC3=C(C2)C(=O)N(Cc2ccc(C(F)(F)F)cc2)C2=NCCCN23)c1 [TR‐98]
Response given: 24

Challenge: # assay system SUM159 cells: give IC50 of N#Cc1cccc(CC2CCC3=C(C2)C(=O)N(Cc2ccc(C(F)(F)F)cc2)C2=NCCN23)c1 (stereo not shown) [TR‐109]
Response given: 4600

====

experiment: Pharmacokinetic analysis in ICR mice; assay type: in vivo, mouse; conditions: male, mouse, plasma, po; ICR mice, 10 mg/kg orally; read-out: exposure (AUC)
Assay readout: AUC (ng·h/mL)
Respond with the bare value in ng·h/mL.

Challenge: Respond only with AUC recorded for `N#Cc1cccc(CN2CCc3ncn(Cc4ccc(Cl)cc4)c(=O)c3C2)c1`
Response given: 2360

Challenge: Respond only with AUC recorded for `Cn1c2c(c(=O)n(Cc3ccc(Cl)cc3)c1=O)CN(Cc1cccc(C#N)c1)CC2`
Response given: 2710

====

test system: MDA‐MB‐231 cells; assay: Cell viability (total cell count, Hoechst stain) in MDA‐MB‐231 cells; type: cell-based, human; settings: Homo sapiens, MDA-MB-231; media containing glucose, 72 h; read-out: IC50 (nM) Glucose
Assay readout: IC50 (nM)
Respond with the bare value in nM.

Challenge: # assay system MDA‐MB‐231 cells: give IC50 of N#Cc1cccc(CN2CCc3ncn(Cc4ccc(Cl)cc4)c(=O)c3C2)c1 [TR‐107]
Response given: 19

====

assay: Pharmacokinetic analysis in ICR mice; assay type: in vivo, mouse; settings: male, mouse, plasma; ICR mice, 10 mg/kg oral; read-out: C max (mg/ml)
Assay readout: Cmax (mg/mL)
Respond with the bare value in mg/mL.

C#Cc1cccc(CN2CCC3=C(C2)C(=O)N(Cc2ccc(Cl)cc2)C2=NCCN23)c1 : 0.000127
O=C1C2=C(CCN(Cc3ccccc3)C2)N2CCN=C2N1Cc1ccc(C(F)(F)F)cc1 [ONC212/TR‐31, reference compound] : 0.000282
N#Cc1cccc(CN2CCc3ncn(Cc4ccc(Cl)cc4)c(=O)c3C2)c1 : 0.00144
N#Cc1cccc(CN2CCC3=C(C2)C(=O)N(Cc2ccc(Cl)cc2)C2=NCCN23)c1 : 0.000294

Challenge: Respond only with Cmax recorded for `Cn1c2c(c(=O)n(Cc3ccc(Cl)cc3)c1=O)CN(Cc1cccc(C#N)c1)CC2`
Response given: 0.00171

====

# reported IC50; entries follow
system: SUM159 cells; experiment: Cell viability (total cell count, Hoechst stain) in SUM159 cells; type: cell-based; conditions: Homo sapiens, WT cells, 72 h, mean N = 3
Respond with the bare value in nM.

N#Cc1cccc(CC2CCC3=C(C2)C(=O)N(Cc2ccc(Cl)cc2)C2=NCCN23)c1 (stereo not shown) : 3500
N#Cc1cccc(CN2CCC3=C(C2)C(=O)N(Cc2ccc(Cl)cc2)C2=NCC(F)(F)CN23)c1 : 120
O=C1C2=C(CCN(Cc3ccccc3)C2)N2CCN=C2N1Cc1ccc(C(F)(F)F)cc1 [ONC212/TR‐31, reference compound] : 27

Now look at this entry.
Challenge: Respond only with IC50 recorded for `N#Cc1cccc(CN2CCc3ncn(Cc4ccc(Cl)cc4)c(=O)c3C2)c1`
Response given: 12
